The origin of these recorded values is patent US10689366B2.

Target: MALT1 (Homo sapiens, UniProt Q9UDY8)
Sequence (Q9UDY8 whole entry): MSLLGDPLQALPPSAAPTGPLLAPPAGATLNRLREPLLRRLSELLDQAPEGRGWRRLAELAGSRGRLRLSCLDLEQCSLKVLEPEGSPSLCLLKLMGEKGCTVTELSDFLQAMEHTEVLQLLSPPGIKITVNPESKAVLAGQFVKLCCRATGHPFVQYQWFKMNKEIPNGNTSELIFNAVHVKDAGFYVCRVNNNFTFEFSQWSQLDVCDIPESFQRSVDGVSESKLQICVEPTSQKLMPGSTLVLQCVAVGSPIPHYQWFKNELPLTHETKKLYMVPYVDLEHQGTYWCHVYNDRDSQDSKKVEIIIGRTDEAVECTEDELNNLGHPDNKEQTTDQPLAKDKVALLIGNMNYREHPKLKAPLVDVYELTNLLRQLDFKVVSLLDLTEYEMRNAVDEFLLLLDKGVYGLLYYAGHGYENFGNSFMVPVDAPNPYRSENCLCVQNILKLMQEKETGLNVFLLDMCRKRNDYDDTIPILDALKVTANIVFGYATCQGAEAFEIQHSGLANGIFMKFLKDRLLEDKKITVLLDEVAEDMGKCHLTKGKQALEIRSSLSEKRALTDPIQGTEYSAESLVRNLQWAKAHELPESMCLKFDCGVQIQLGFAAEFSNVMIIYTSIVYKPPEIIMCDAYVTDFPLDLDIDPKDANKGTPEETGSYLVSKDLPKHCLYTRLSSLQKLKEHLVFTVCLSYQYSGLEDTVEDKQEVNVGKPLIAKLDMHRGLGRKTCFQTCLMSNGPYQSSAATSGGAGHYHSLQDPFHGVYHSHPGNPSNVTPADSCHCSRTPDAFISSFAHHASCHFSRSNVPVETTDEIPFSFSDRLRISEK
Assay: MALT1 degradation assay (Western blot) in OCI-Ly3 cells
Format: cell-based
Parameters: endogenous in cells; host or cells: OCI-Ly3
Details: 48 hours, normalized to Actin, relative to vehicle treated cells, read-out: % MALT1 Degradation at 1 μM
MEASURED_PROPERTY: % MALT1 degradation at 1 µM

Field: example entries. Status: answers known.
* CO[C@@H](C)c1c(NC(=O)Nc2cc(Cl)cnc2OCCNC(=O)CCOCCOCCOCCOCCNc2cccc3c2C(=O)N(C2CCC(=O)NC2=O)C3=O)cnc2cc(Cl)nn12 (stereo partly drawn) [Example 3] | > 50%
* Cc1c(NC(=O)Nc2cnc(-n3cc(CNC(=O)CCOCCOCCNc4cccc5c4CN(C4CCC(=O)NC4=O)C5=O)cn3)c(Cl)c2)cnc2ccc(Br)cc12 (stereo not drawn) [Example 8] | 31 to 50%

Continue with the compound presented below.
Query :: Find % MALT1 degradation at 1 µM (MALT1 (Homo sapiens, UniProt Q9UDY8)) for the entry CO[C@@H](C)c1c(NC(=O)Nc2cc(Cl)cnc2OCCNC(=O)CCOCCOCCOCCN2CCN(Cc3ccc(COc4cccc5c4CN([C@H]4CCC(=O)NC4=O)C5=O)cc3)CC2)cnc2cc(Cl)nn12 [Example 19]
Result :: > 50%
